System: A549/ATCC NSCLC
Assay: NCI-60 one-dose screen, 48 h (100 = growth as untreated, 0 = no growth, -100 = all killed)
Details: 10 µM unless noted
About 83,000 compounds went through this panel and 20% of them were active in at least one assay; those are over-represented in the sample as a whole.

>  <compound>
COc1ccc(OC)c(/C=C/C(=O)c2c(C)nc3ccccc3c2/C=C/c2ccccc2)c1

>  <growth [%]>
55.8

$$$$
>  <compound>
O=Cc1c(OCc2cnnn2CC(=O)Nc2ccc(Br)cc2)ccc2ccccc12

>  <growth [%]>
91.6

$$$$
>  <compound>
CC1=C(C(=O)OCC2CCN(C(=O)OC(C)(C)C)CC2)[C@@H](c2cccc(C#N)c2)C2=C(CC(C)(C)CC2=O)N1

>  <growth [%]>
35.5

$$$$
>  <compound>
O=C(CCc1nnc2sc(-c3ccc(Cl)cc3Cl)nn12)c1nc2ncccc2[nH]1

>  <growth [%]>
4.78

$$$$
>  <compound>
Cc1sc2ncn(CC(=O)Nc3ccc(S(N)(=O)=O)cc3)c(=O)c2c1C

>  <growth [%]>
98

$$$$
>  <compound>
Cc1cccc2c(=O)c3c(sc12)c(NCCCNCCO)nc1ccccc13

>  <growth [%]>
39.4

$$$$
>  <compound>
COc1ccc(N)c(-c2cc3c(c4c2[nH]c2ccc(OC)cc24)CCCC3)c1

>  <growth [%]>
64.1

$$$$
>  <compound>
Cc1nc2ccccc2c(/C=C/c2ccccc2)c1C(=O)/C=C/c1ccc(Cl)cc1

>  <growth [%]>
25.3

$$$$
>  <compound>
NS(=O)(=O)c1ccc(CCN=C=S)cc1

>  <growth [%]>
71.5

$$$$
>  <compound>
Nc1nc2c(ncn2[C@@H]2O[C@H](CS)[C@@H](O)[C@H]2O)c(=O)[nH]1

>  <growth [%]>
96.6

$$$$
>  <compound>
O=C(COc1cc(O)c2c(=O)cc(-c3ccccc3)oc2c1)Nc1ccccc1C(F)(F)F

>  <growth [%]>
0.206

$$$$
>  <compound>
CCOC(=O)c1cc2c(n1Cc1cc(OC)cc(OC)c1)-c1oncc1CCC2

>  <growth [%]>
26.6

$$$$
>  <compound>
O=C(Nc1ccc(Cl)cc1)c1cc2ccccc2cc1OP(=O)(O)O

>  <growth [%]>
16.4

$$$$
>  <compound>
Cc1ccc2cccc(Oc3ccc(Nc4ncnc5onc(-c6ccccc6)c45)cc3)c2n1

>  <growth [%]>
80.6

$$$$
>  <compound>
Brc1ccc(Nc2nc3ccccc3nc2Nc2ccc(Br)cc2)cc1

>  <growth [%]>
-6.83

$$$$
>  <compound>
Oc1ccc(-c2nc(-c3ccc4oc5ccc(-c6[nH]c(-c7ccc(O)cc7)nc6-c6ccccc6)cc5c4c3)c(-c3ccccc3)[nH]2)cc1

>  <growth [%]>
65.8

$$$$
>  <compound>
COc1ccc(/C=C2\NC(=O)NC2=O)cc1O

>  <growth [%]>
99.1

$$$$
>  <compound>
CCn1c(SCC(=O)Nc2cc(C(F)(F)F)ccc2Cl)nc2ccccc2c1=O

>  <growth [%]>
50.5

$$$$
>  <compound>
Cn1nc(C(F)(F)F)c(-c2ccc(Cl)c(C(F)(F)F)c2)c1-c1ccc(OCc2ccc(Cl)cc2)cc1O

>  <growth [%]>
12.8

$$$$
>  <compound>
O=C1OC(c2ccccc2)(c2ccccc2)c2ccsc21

>  <growth [%]>
101

$$$$
>  <compound>
O=C(Nc1ccc(I)cc1F)c1cc(Cl)ccc1O

>  <growth [%]>
7

$$$$
>  <compound>
O=C(Nc1ccc(N2CCNCC2)cn1)c1[nH]ncc1Nc1ncnc2sccc12

>  <growth [%]>
4.12

$$$$
>  <compound>
O=C(c1nc2ccccc2[nH]1)C1C(c2cccc([N+](=O)[O-])c2)C2CC3CCCCC3N2[C@@]12C(=O)Nc1cc(Cl)ccc12 (some centres not stated)

>  <growth [%]>
17.8

$$$$
>  <compound>
O=C(N/N=C/c1ccccc1Cl)C(=O)Nc1cccc(C(F)(F)F)c1

>  <growth [%]>
88.8

$$$$
>  <compound>
O=C(Nc1ccc(Cl)cc1F)c1cc(I)ccc1O

>  <growth [%]>
17.6

$$$$
>  <compound>
O=c1oc2ccc(I)cc2c(=O)n1-c1ccc(Br)cc1F

>  <growth [%]>
7.12

$$$$
>  <compound>
Cc1nc(Nc2cn[nH]c2C(=O)Nc2ccc(CN3CCN(C)CC3)cc2)c2ccsc2n1

>  <growth [%]>
66.9

$$$$
